Provenance of the data: patent US11130780B2

biological target: HGFA (Homo sapiens); construct: His6 tag (N); seven amino acid spacer and seven amino acid TEV cleavage site (N); Honey Bee melittin signal peptide (N); made in house; host or cells: High 5 insect cells (baculovirus; virus raised in Sf9); test: Fluorescent kinetic enzyme inhibitor assay of HGFA; format: biochemical; details: Table 9.1; Fluorogenic Assay; read-out: HGFA Ki
pKi: −log10 of the molar value.
recorded-endpoint: pKi

- N=C(N)c1cccc(C[C@H](NS(=O)(=O)c2ccc3ccccc3c2)C(=O)N2CCN(C(=O)NCc3ccccc3)CC2)c1 [Compound 17a]: 4.85
- Cc1ccc(S(=O)(=O)N[C@@H](Cc2cccc(C(=N)N)c2)C(=O)N2CCC(c3ccccc3)CC2)cc1 [Compound 25b]: 4.70
- CC(C)c1cc(C(C)C)c(S(=O)(=O)N[C@@H](Cc2cccc(C(=N)N)c2)C(=O)N2CCN(C(=O)C3CCN(C(=N)N)CC3)CC2)c(C(C)C)c1 [JWJ-I-135]: 4.75

====

molecular target: HGFA (Homo sapiens, UniProt Q04756); construct: His6 tag (N); seven amino acid spacer and seven amino acid TEV cleavage site (N); Honey Bee melittin signal peptide (N); made in house; host or cells: High 5 insect cells (baculovirus; virus raised in Sf9); assay: Fluorescent kinetic enzyme inhibitor assay of HGFA; assay type: biochemical; settings: Table 9.1; Fluorogenic Assay; listed as FMF-1-279-003; read-out: HGFA Ki
Sequence (Q04756 373-655): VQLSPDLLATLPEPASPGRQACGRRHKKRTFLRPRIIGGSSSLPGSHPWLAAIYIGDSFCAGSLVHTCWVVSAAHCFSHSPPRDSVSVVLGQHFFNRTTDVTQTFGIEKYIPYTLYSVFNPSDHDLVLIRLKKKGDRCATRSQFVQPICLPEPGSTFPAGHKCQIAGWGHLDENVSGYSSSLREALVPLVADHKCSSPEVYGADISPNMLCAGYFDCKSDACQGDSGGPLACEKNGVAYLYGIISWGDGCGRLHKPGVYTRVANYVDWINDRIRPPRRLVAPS
recorded-endpoint: Ki (µM)
Give the number; µM is assumed, so skip it.

Ask | Retrieve Ki on HGFA (Homo sapiens, UniProt Q04756); query N=C(N)c1cccc(C[C@H](NS(=O)(=O)c2ccc3ccccc3c2)C(=O)N2CCN(C(=O)NCc3ccccc3)CC2)c1 [Compound 17a]
Reply | 14

====

target: HGFA (Homo sapiens); construct: His6 tag (N); seven amino acid spacer and seven amino acid TEV cleavage site (N); Honey Bee melittin signal peptide (N); made in house; host or cells: High 5 insect cells (baculovirus; virus raised in Sf9); assay: Chromogenic kinetic enzyme inhibitor assay of HGFA; format: biochemical; details: Table 4.1; chromogenic substrate Pefachrome FVIIa
pIC50: −log10 of the molar value.
recorded-endpoint: pIC50

Example entries begin here.
• CC(=O)N[C@@H](CO)C(=O)N[C@@H](CCCCN)C(=O)N[C@@H](Cc1ccccc1)C(=O)N[C@@H](CCCNC(=N)N)C(=O)c1nccs1 [Compound 6c, Ac-SKFR(SEQ ID NO: 13)-kt] = 6.28
• N=C(N)c1ccc2cc(OC(=O)c3ccc(N=C(N)N)cc3)ccc2c1 [Nafamostat, reference compound] = 6.10
• CC(=O)N[C@@H](CO)C(=O)N[C@@H](CCCCN)C(=O)N[C@@H](CC(C)C)C(=O)N[C@H](CCCNC(=N)N)C(=O)c1nccs1 = 5.20
• CC(=O)N[C@@H](CO)C(=O)N[C@@H](Cc1c[nH]cn1)C(=O)N[C@@H](CC(C)C)C(=O)N[C@@H](CCCNC(=N)N)C(=O)c1nccs1 [Compound 6a, Ac-SHLR(SEQ ID NO: 11)-kt] = 5.74
• CC(=O)N[C@@H](CCCCN)C(=O)N[C@@H](CCCNC(=N)N)C(=O)N[C@@H](CC(C)C)C(=O)N[C@@H](CCCNC(=N)N)C(=O)c1nccs1 [Compound 5g, Ac-KRLR(SEQ ID NO: 8)-kt] = 6.65
• CC(=O)N[C@@H](CC(C)C)C(=O)N[C@@H](CC(C)C)C(=O)N[C@H](C=O)CCCNC(=N)N [Leupeptin, reference compound] = 6.27
• CC(=O)N[C@@H](Cc1c[nH]c2ccccc12)C(=O)N[C@@H](CCC(N)=O)C(=O)N[C@@H](CC(C)C)C(=O)N[C@H](CCCNC(=N)N)C(=O)c1nccs1 = 5.15
• CC(=O)N[C@@H](CCCCN)C(=O)N[C@@H](CCC(N)=O)C(=O)N[C@@H](Cc1ccccc1)C(=O)N[C@H](CCCNC(=N)N)C(=O)c1nccs1 = 5.11
• CC(C)C[C@H](NC(=O)[C@H](CCC(N)=O)NC(=O)[C@@H](N)CCCCN)C(=O)N[C@@H](CCCNC(=N)N)C(=O)c1nccs1 [H-KQLR(SEQ ID NO: 1)-Kt] = 6.36

1: CC(=O)N[C@@H](CO)C(=O)N[C@@H](Cc1c[nH]cn1)C(=O)N[C@@H](CC(C)C)C(=O)N[C@H](CCCNC(=N)N)C(=O)c1nccs1
2: CC(=O)N[C@@H](CCCCN)C(=O)N[C@@H](Cc1ccccc1)C(=O)N[C@@H](CC(C)C)C(=O)N[C@@H](CCCNC(=N)N)C(=O)c1nccs1 [Compound 5d, Ac-KFLR(SEQ ID NO: 5)-kt]
Ask | Of 1 and 2 , whose reported pIC50 is numerically smaller? Use the label to indicate which entry you chose.
Reply | 1
(1: 4.67, 2: 6.48)

====

biological target: hepsin (Homo sapiens, UniProt P05981); construct: purchased R&D Systems 4776-SE-010; test: Fluorescent kinetic enzyme inhibitor assay of hepsin; assay type: biochemical; details: Table 9.1; Fluorogenic Assay; read-out: Hepsin Ki
Sequence (P05981 163-417 limits assumed): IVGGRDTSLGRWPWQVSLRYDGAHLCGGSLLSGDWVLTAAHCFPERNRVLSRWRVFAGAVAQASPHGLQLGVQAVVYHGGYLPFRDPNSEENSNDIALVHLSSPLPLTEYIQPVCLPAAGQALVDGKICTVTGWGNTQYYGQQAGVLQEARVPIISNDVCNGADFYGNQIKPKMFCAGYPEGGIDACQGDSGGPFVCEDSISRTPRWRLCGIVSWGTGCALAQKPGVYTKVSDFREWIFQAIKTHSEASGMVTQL
Sequence (P05981 45-162 partner limits assumed): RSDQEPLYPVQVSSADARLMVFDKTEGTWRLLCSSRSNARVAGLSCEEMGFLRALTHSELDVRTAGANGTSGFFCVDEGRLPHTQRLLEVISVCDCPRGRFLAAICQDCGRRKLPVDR
pKi: −log10 of the molar value.
recorded-endpoint: pKi

Illustrative cases are given below, each with its answer.
* CCOC(=O)N1CCN(C(=O)[C@H](Cc2cccc(C(=N)N)c2)NS(=O)(=O)c2ccc3ccccc3c2)CC1 [FMF-1-275-004] | 4.40
* N=C(N)c1cccc(C[C@H](NS(=O)(=O)c2ccc3ccccc3c2)C(=O)N2CCN(C(=O)Cc3cccc(O)c3)CC2)c1 [Compound 31] | 5.77

1: CC(C)CN1CCN(C(=O)[C@H](Cc2cccc(C(=N)N)c2)NS(=O)(=O)c2ccc3ccccc3c2)CC1 [Compound 30]
2: N=C(N)c1cccc(C[C@H](NS(=O)(=O)c2ccc3ccccc3c2)C(=O)N2CCN(C(=O)Cc3ccc(F)cc3)CC2)c1 [Compound 32]
Ask | Endpoint returns whichever of 1 and 2 has the numerically higher pKi. Indicate your choice by writing its label.
Reply | 2
(2: 6.00, 1: 5.31)

====

Recorded Ki values for a group of compounds are listed next.
molecular target: matriptase (Homo sapiens); construct: Charles Craik, UCSF (obtained from another laboratory); test: Fluorescent kinetic enzyme inhibitor assay of matriptase; type: biochemical; conditions: Table 6.1; Fluorogenic Assay
Sequence (Q9Y5Y6 615-855 limits assumed): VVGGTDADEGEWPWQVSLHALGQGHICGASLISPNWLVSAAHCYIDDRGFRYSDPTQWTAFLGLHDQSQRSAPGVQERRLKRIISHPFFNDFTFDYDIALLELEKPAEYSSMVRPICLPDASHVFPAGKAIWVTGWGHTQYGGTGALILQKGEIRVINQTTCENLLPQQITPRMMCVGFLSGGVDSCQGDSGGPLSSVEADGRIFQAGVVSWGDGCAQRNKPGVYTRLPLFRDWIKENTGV
Text: […]
Starred links: 1 amine or outer side, 2 acyl side, 3 side chain; linkers in the order of their positions; H or OH if unused. Non-standard residues stand in square brackets, D forms with d. Residues, ends and D or L forms follow the SMILES beside them. X1 = N=C(N)NCCC[C@H](N[*:1])C(=O)c1nc2ccc(C(=O)[*:2])cc2s1
Just the number please, in nM, no unit attached.

• CC(=O)N[C@@H](CCCCN)C(=O)N[C@@H](CCCNC(=N)N)C(=O)N[C@@H](CC(C)C)C(=O)N[C@@H](CCCNC(=N)N)C(=O)c1nc2ccc(C(=O)N[C@H](C(N)=O)C(C)C)cc2s1 [Compound 7115, Ac-KRLR(SEQ ID NO: 8)-Kbt-Val—NH2] (Ac-KRL[X1]V-NH2) = 7.41
• N=C(N)NCCC[C@H](NC(=O)[C@H](CCC(N)=O)NC(=O)OCC1c2ccccc2-c2ccccc21)C(=O)c1nc2ccccc2s1 [Compound 7185-6, Fmoc-QR-kbt] = 1.6

Turning now to a further compound:
Ask | Retrieve Ki on matriptase (Homo sapiens); query CC(=O)N[C@@H](Cc1ccccc1)C(=O)N[C@@H](CC(C)C)C(=O)N[C@@H](Cc1ccccc1)C(=O)N[C@@H](CCCNC(=N)N)C(=O)c1nc2ccccc2s1 [Compound 7063, Ac-FLFR(SEQ ID NO: 19)-Kbt]
Reply | 3.6

====

biological target: HGFA (Homo sapiens, UniProt Q04756); construct: His6 tag (N); seven amino acid spacer and seven amino acid TEV cleavage site (N); Honey Bee melittin signal peptide (N); made in house; host or cells: High 5 insect cells (baculovirus; virus raised in Sf9); test: Fluorescent kinetic enzyme inhibitor assay of HGFA; format: biochemical; settings: Table 6.1; Fluorogenic Assay; read-out: HGFA Ki
pKi: −log10 of the molar value. Starred links: 1 amine or outer side, 2 acyl side, 3 side chain; linkers in the order of their positions; H or OH if unused. Non-standard residues stand in square brackets, D forms with d. Residues, ends and D or L forms follow the SMILES beside them. X1 = N=C(N)NCCC[C@H](N[*:1])C(=O)c1nc2ccc(C(=O)[*:2])cc2s1
recorded-endpoint: pKi

- CC(=O)N[C@@H](CO)C(=O)N[C@@H](CCCCN)C(=O)N[C@@H](CC(C)C)C(=O)N[C@@H](CCCNC(=N)N)C(=O)c1nc2ccc(C(=O)N[C@@H](Cc3ccccc3)C(N)=O)cc2s1 [Compound 7125, Ac-SKLR(SEQ ID NO: 10)-Kbt-Phe— NH2] (Ac-SKL[X1]F-NH2): 7.76
- CC(=O)N[C@@H](Cc1ccccc1)C(=O)N[C@@H](CC(C)C)C(=O)N[C@@H](Cc1ccccc1)C(=O)N[C@@H](CCCNC(=N)N)C(=O)c1nc2ccccc2s1 [Compound 7063, Ac-FLFR(SEQ ID NO: 19)-Kbt]: 6.94
- CC(=O)N[C@@H](CO)C(=O)N[C@@H](CCCCN)C(=O)N[C@@H](CC(C)C)C(=O)N[C@@H](CCCNC(=N)N)C(=O)c1nc2ccc(C(=O)NCc3ccccc3)cc2s1 [Compound 7139, Ac-SKLR(SEQ ID NO: 10)-Kbt- benzylamide]: 8.04
- CC(=O)N[C@@H](CCCCN)C(=O)N[C@@H](CCCNC(=N)N)C(=O)N[C@@H](CC(C)C)C(=O)N[C@@H](CCCNC(=N)N)C(=O)c1nc2ccccc2s1 [Compound 7054, Ac-KRLR(SEQ ID NO: 8)-Kbt]: 8.22
- CC(C)C[C@H](NC(=O)[C@H](CCCNC(=N)N)NC(=O)[C@@H](N)Cc1c[nH]c2ccccc12)C(=O)N[C@@H](CCCNC(=N)N)C(=O)c1nc2ccccc2s1 [Compound 7117, H-WRLR(SEQ ID NO: 9)-Kbt]: 8.06

P: CC(C)C[C@H](NC(=O)[C@H](N)Cc1c[nH]c2ccccc12)C(=O)N[C@@H](CCCNC(=N)N)C(=O)c1nc2ccc(C(=O)O)cc2s1
Q: CC(C)C[C@H](NC(=O)[C@@H](N)Cc1c[nH]c2ccccc12)C(=O)N[C@@H](CCCNC(=N)N)C(=O)c1nc2ccc(C(=O)N[C@H](C(N)=O)C(C)C)cc2s1 [Compound 7181, H-WLR-kbt V amide]
R: CC(=O)N[C@@H](CO)C(=O)N[C@@H](CCCCN)C(=O)N[C@@H](CC(C)C)C(=O)N[C@@H](CCCNC(=N)N)C(=O)c1nc2ccc(C(=O)NC3CCNCC3)cc2s1
S: CC(C)C[C@H](NC(=O)[C@@H](N)CCCNC(=N)N)C(=O)N[C@@H](CCCNC(=N)N)C(=O)c1nc2ccc(C(=O)N[C@H](C(N)=O)C(C)C)cc2s1 [Compound 7180, H-RLR-kbt V amide]
Ask | Falling order of pKi, please. Answer by naming the labels in the order asked.
Reply | R, S, Q, P
(R: 8.11, S: 7.90, Q: 7.13, P: 6.46)

a: CC(C)C[C@H](NC(=O)[C@@H](N)CCCNC(=N)N)C(=O)N[C@@H](CCCNC(=N)N)C(=O)c1nc2ccccc2s1
b: CC[C@H](C)[C@H](NC(=O)OCC1c2ccccc2-c2ccccc21)C(=O)N[C@@H](CCCNC(=N)N)C(=O)c1nc2ccccc2s1
c: CC(C)C[C@H](NC(=O)[C@@H](N)Cc1c[nH]c2ccccc12)C(=O)N[C@@H](CCCNC(=N)N)C(=O)c1nc2ccc(C(=O)O)cc2s1
Ask | Order each entry by recorded pKi, climbing from the minimum. I would appreciate it if you listed the labels in the requested order.
Reply | b, c, a
